For each entry below, report its pEC50 value.
- experimental target: T1, angiopoietin-2 (Ang2) (human, UniProt O15123 68-496, limits assumed, biotinylated in Examples 22-24 (R&D cat#BT633))
- T1 construct: also called rhAng2; recombinant Ang2
- T1 sequence (looked up): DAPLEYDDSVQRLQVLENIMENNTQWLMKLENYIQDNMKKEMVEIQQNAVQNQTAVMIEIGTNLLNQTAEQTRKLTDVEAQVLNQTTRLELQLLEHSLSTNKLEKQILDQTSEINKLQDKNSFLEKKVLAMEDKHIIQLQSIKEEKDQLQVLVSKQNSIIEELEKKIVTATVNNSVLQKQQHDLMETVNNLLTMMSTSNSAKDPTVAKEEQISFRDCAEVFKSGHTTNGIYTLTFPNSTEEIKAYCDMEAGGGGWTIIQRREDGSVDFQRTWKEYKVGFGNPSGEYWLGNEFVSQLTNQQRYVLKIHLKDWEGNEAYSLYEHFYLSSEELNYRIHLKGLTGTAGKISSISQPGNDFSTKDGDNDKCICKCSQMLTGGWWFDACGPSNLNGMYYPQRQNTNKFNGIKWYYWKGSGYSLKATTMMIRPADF
- protocol summary: ELISA, rhAng2 coated, MRD-MBP fusion detected with HRP anti-MBP mAb; EC50 from a 4 parameter fit
Entry type: numeric. Quantity: pEC50, the -log10 of concentration in molar units.

Ask: Form field: reported pEC50 of MGAQTNFMPMSDDELLLYEQFILQQGLE (other) [L1-7D MSD]
Result: 8.86

Ask: Please give the measured pEC50 for this binder: MGAQTNFMPMHDDELLLYEQFILQQGLE (other) [L1-7D MHD]
Result: 7.77

Ask: Entry MGAQTNFMPMTDDELLLYEQFILQQGLE (other) [L1-7D MTD] : reported pEC50 = ?
Result: 8.13

Ask: Any idea what pEC50 was measured for PGSGGGSMGAQTNFMPMDNDELLLYEQFILQQGLE (other) [Lm32 KtoS] ?
Result: 9.70

Ask: Consider the binder MGAQTNFMPMNDDELLLYEQFILQQGLE (other) [L1-7D MND] and give its measured pEC50.
Result: 9.39

Ask: Can you share its pEC50? I mean this binder: MGAQTNFMPMGDDELLLYEQFILQQGLE (other) [L1-7D MGD]
Result: 9.22
